Assay: in vitro
Conditions: human, microsomes
experimentalReadout: half-life at 0.5 h, 1 µM (min)
All answers are understood in min, so give the number only.

Ask: Quick one: half-life at 0.5 h, 1 µM of `N[C@H]1CCCN(c2ccncc2NC(=O)c2csc(-c3c(F)cccc3F)n2)C1` ?
Result: 70

Ask: What about `C[C@@H]1C[C@H](N)CN(c2ccncc2NC(=O)c2ccc(F)c(-c3ccccc3F)n2)C1` ?
Result: 13

Ask: Next entry: `C[C@@H]1C[C@H](N)CN(c2ccncc2NC(=O)c2csc(-c3c(F)cccc3F)n2)C1`
Result: 49

Ask: Note, next up: `Nc1ccc(C2CCCCC2)nc1C(=O)Nc1cnccc1[C@@H]1CCC[C@H](N)C1`
Result: 85

Ask: Try `C[C@@H]1C[C@H](N)CN(c2ccncc2NC(=O)c2ccc(F)c(-c3c(F)cccc3F)n2)C1` next.
Result: 40

Ask: Param item: `N[C@H]1CCCN(c2ccncc2NC(=O)c2ccc(F)c(-c3c(F)cccc3F)n2)C1`
Result: 25

Ask: Now this one: `Nc1ccc(C2CCCCC2)nc1C(=O)Nc1cnccc1N1CCC[C@H](N)C1`
Result: 14

Ask: Now give it for `N[C@H]1CCC[C@@H](c2ccncc2NC(=O)c2csc(-c3c(F)cccc3F)n2)C1` too.
Result: 121

###

Assay: in vitro
Details: rat, microsomes
Provide the recorded half-life at 0.5 h, 1 µM for the entries that follow.
Expressed in min, but write only the number.

Ask: Can you look up the measured half-life at 0.5 h, 1 µM of `N[C@H]1CCCN(c2ccncc2NC(=O)c2ccc(F)c(-c3c(F)cccc3F)n2)C1` for me?
Result: 13

Ask: Repeat for the following compound: `C[C@@H]1C[C@H](N)C[C@H](c2ccncc2NC(=O)c2csc(-c3c(F)cccc3F)n2)C1`
Result: 65

Ask: Could you do the same for `C[C@@H]1C[C@H](N)C[C@H](c2ccncc2NC(=O)c2ccc(F)c(-c3ccccc3F)n2)C1` , please?
Result: 92

Ask: And for `C[C@@H]1C[C@H](N)CN(c2ccncc2NC(=O)c2ccc(F)c(-c3c(F)cccc3F)n2)C1` ?
Result: 20

Ask: And for `C[C@@H]1C[C@H](N)CN(c2ccncc2NC(=O)c2ccc(F)c(-c3ccccc3F)n2)C1` ?
Result: 11

Ask: Same lookup for `N[C@H]1CCC[C@@H](c2ccncc2NC(=O)c2csc(-c3c(F)cccc3F)n2)C1` , please.
Result: 85

Ask: Continue with `Nc1ccc(C2CCCCC2)nc1C(=O)Nc1cnccc1N1CCC[C@H](N)C1`
Result: 3

Ask: Now try `N[C@H]1CCCN(c2ccncc2NC(=O)c2csc(-c3c(F)cccc3F)n2)C1` .
Result: 6

Ask: Cool, now `Nc1ccc(C2CCCCC2)nc1C(=O)Nc1cnccc1[C@@H]1CCC[C@H](N)C1`
Result: 8

Ask: Can you handle `C[C@@H]1C[C@H](N)CN(c2ccncc2NC(=O)c2csc(-c3c(F)cccc3F)n2)C1` next?
Result: 9

###

Assay: cells
Assay type: functional, cell-based
Settings: Homo sapiens, KMS-11, 72 h
Description: Antiproliferative activity against luciferase expressing human KMS11 cells after 72 hrs by Cell-TiterGlo assay
experimentalReadout: EC50 (nM)
Supply the numeric figure in nM, leaving out any unit text.

Ask: Query (compound): `C[C@@H]1C[C@H](N)CN(c2ccncc2NC(=O)c2csc(-c3c(F)cccc3F)n2)C1` ; field requested: EC50
Result: 390

Ask: Please answer likewise for `N[C@H]1CCC[C@@H](c2ccncc2NC(=O)c2csc(-c3c(F)cccc3F)n2)C1`
Result: 5000

Ask: Record: `CN1CCC(CNc2ccc3ncc(-c4cccc(OC(F)(F)F)c4)n3n2)CC1`
Result: 5000

Ask: `C[C@@H]1C[C@H](N)C[C@H](c2ccncc2NC(=O)c2csc(-c3c(F)cccc3F)n2)C1` , same question.
Result: 910

Ask: Param item: `N[C@H]1CCCN(c2ccncc2NC(=O)c2ccc(F)c(-c3c(F)cccc3F)n2)C1`
Result: 1400

Ask: Next compound: `N[C@@H]1CCCN(c2c(/C=C3\SC(=O)NC3=O)cccc2-c2ccccc2)C1`
Result: 670

Ask: Okay, and `N[C@H]1CCCN(c2ccncc2NC(=O)c2csc(-c3c(F)cccc3F)n2)C1` ?
Result: 1200

###

Test: in vitro
Settings: rat, microsomes
# strict inequality: CLhep predicted at 0.5 h, 1 µM < 40 mL/min/kg yields criterion met, everything else yields criterion not met

Ask: Field: below-cutoff. Rule: recorded CLhep predicted at 0.5 h, 1 µM strictly less than 40 mL/min/kg. Subject: `N[C@H]1CCCN(c2ccncc2NC(=O)c2csc(-c3c(F)cccc3F)n2)C1`
Result: criterion not met

Ask: Moving on to the next compound: `N[C@H]1CCCN(c2ccncc2NC(=O)c2ccc(F)c(-c3c(F)cccc3F)n2)C1`
Result: criterion not met

Ask: Now consider `N[C@H]1CCC[C@@H](c2ccncc2NC(=O)c2csc(-c3c(F)cccc3F)n2)C1` .
Result: criterion met

Ask: Note, next up: `Nc1ccc(C2CCCCC2)nc1C(=O)Nc1cnccc1N1CCC[C@H](N)C1`
Result: criterion not met

Ask: // query: `C[C@@H]1C[C@H](N)CN(c2ccncc2NC(=O)c2csc(-c3c(F)cccc3F)n2)C1`
Result: criterion not met

Ask: Try this compound too: `C[C@@H]1C[C@H](N)C[C@H](c2ccncc2NC(=O)c2csc(-c3c(F)cccc3F)n2)C1`
Result: criterion met

Ask: Again, but for `C[C@@H]1C[C@H](N)CN(c2ccncc2NC(=O)c2ccc(F)c(-c3ccccc3F)n2)C1`
Result: criterion not met

###

Assay: in vitro
Details: human, microsomes
Please go through the items and note down their CLhep predicted at 0.5 h, 1 µM.
Just the number in mL/min/kg, nothing appended.

Ask: # query: CLhep predicted at 0.5 h, 1 µM of entry `N[C@H]1CCC[C@@H](c2ccncc2NC(=O)c2csc(-c3c(F)cccc3F)n2)C1`
Result: 8

Ask: Now this one: `Nc1ccc(C2CCCCC2)nc1C(=O)Nc1cnccc1[C@@H]1CCC[C@H](N)C1`
Result: 10

Ask: Field entry: `N[C@H]1CCCN(c2ccncc2NC(=O)c2ccc(F)c(-c3c(F)cccc3F)n2)C1`
Result: 16

Ask: Another: `C[C@@H]1C[C@H](N)CN(c2ccncc2NC(=O)c2ccc(F)c(-c3c(F)cccc3F)n2)C1`
Result: 14

Ask: Same question, `C[C@@H]1C[C@H](N)CN(c2ccncc2NC(=O)c2csc(-c3c(F)cccc3F)n2)C1` this time
Result: 13

###

Target: Serine/threonine-protein kinase pim-1 (Homo sapiens, UniProt P11309)
Sequence (P11309 whole entry): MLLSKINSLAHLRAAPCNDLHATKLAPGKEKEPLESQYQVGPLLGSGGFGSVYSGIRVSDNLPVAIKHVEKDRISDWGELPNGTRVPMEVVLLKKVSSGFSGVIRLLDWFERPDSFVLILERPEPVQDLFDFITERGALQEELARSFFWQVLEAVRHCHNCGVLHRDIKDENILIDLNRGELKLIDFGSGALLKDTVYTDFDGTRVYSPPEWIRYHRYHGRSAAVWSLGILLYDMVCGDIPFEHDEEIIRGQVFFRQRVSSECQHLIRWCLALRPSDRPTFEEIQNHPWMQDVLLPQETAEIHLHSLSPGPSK
pKi: −log10 of the molar value.
experimentalReadout: pKi

Ask: Entry `Nc1ccc(C2CCCCC2)nc1C(=O)Nc1cnccc1N1CCC[C@H](N)C1` : reported pKi = ?
Result: > 9.00

###

Assay: in vitro
Conditions: human, microsomes
What CLhep predicted at 0.5 h, 1 µM was measured for each of the following?
Record the value in mL/min/kg, omitting the unit from your answer.

Ask: Which measured CLhep predicted at 0.5 h, 1 µM value corresponds to `Nc1ccc(C2CCCCC2)nc1C(=O)Nc1cnccc1N1CCC[C@H](N)C1` ?
Result: 18

Ask: Request: `N[C@H]1CCCN(c2ccncc2NC(=O)c2csc(-c3c(F)cccc3F)n2)C1`
Result: 11

Ask: Another compound: `C[C@@H]1C[C@H](N)CN(c2ccncc2NC(=O)c2ccc(F)c(-c3ccccc3F)n2)C1`
Result: 18
